# ASSAY_PROTOCOL: Half life in human liver S9 microsomes in presence of NADPH by LC-MS/MS method
MEASURED_QUANTITY: half-life

Exam item: Record request: half-life value, item O=C(Cn1cnc([N+](=O)[O-])n1)N1CCN(Cc2ccc(C(F)(F)F)cc2)CC1
Marked response: > 3 h

###

# Tested on: Trypanosoma brucei brucei
# ASSAY_PROTOCOL: Antimicrobial activity against bloodstream forms of Trypanosoma brucei brucei assessed as reduction in cell viability after 3 days by alamar blue assay
# Format: functional, organism-based
# MEASUREMENT_CONTEXT: 72 h
MEASURED_QUANTITY: IC50 (µM)
Please give a number only; it is taken to be in µM.

Exam item: Find the measured IC50: item O=C(Cn1cnc([N+](=O)[O-])n1)N1CCN(c2ccc(Cl)c(Cl)c2)CC1 , target or system Trypanosoma brucei brucei.
Marked response: 4.73

Exam item: Observed IC50 on Trypanosoma brucei brucei for O=C(Cn1cnc([N+](=O)[O-])n1)N1CCN(Cc2ccc(Cl)c(Cl)c2)CC1 , please.
Marked response: 3.59

Exam item: Item: O=C(Cn1cnc([N+](=O)[O-])n1)N1CCN(c2ccc(C(F)(F)F)cc2)CC1 Test system: Trypanosoma brucei brucei Read-out: IC50 Value: ?
Marked response: 17.5

Exam item: Checklist item: IC50 tested on Trypanosoma brucei brucei, entry O=C(Cn1cnc([N+](=O)[O-])n1)N1CCN(Cc2ccc(C(F)(F)F)cc2)CC1 , value?
Marked response: 26

Exam item: Observed IC50 on Trypanosoma brucei brucei for O=C(Cn1cnc([N+](=O)[O-])n1)N1CCN(C(c2ccccc2)c2ccc(Cl)cc2)CC1 (stereo not drawn) , please.
Marked response: 2.75
